Biological target: Ubiquitin-activating enzyme e1, putative (Leishmania donovani (strain BPK282A1)) (UniProt E9BSI1)
Sequence (E9BSI1 as listed by the source): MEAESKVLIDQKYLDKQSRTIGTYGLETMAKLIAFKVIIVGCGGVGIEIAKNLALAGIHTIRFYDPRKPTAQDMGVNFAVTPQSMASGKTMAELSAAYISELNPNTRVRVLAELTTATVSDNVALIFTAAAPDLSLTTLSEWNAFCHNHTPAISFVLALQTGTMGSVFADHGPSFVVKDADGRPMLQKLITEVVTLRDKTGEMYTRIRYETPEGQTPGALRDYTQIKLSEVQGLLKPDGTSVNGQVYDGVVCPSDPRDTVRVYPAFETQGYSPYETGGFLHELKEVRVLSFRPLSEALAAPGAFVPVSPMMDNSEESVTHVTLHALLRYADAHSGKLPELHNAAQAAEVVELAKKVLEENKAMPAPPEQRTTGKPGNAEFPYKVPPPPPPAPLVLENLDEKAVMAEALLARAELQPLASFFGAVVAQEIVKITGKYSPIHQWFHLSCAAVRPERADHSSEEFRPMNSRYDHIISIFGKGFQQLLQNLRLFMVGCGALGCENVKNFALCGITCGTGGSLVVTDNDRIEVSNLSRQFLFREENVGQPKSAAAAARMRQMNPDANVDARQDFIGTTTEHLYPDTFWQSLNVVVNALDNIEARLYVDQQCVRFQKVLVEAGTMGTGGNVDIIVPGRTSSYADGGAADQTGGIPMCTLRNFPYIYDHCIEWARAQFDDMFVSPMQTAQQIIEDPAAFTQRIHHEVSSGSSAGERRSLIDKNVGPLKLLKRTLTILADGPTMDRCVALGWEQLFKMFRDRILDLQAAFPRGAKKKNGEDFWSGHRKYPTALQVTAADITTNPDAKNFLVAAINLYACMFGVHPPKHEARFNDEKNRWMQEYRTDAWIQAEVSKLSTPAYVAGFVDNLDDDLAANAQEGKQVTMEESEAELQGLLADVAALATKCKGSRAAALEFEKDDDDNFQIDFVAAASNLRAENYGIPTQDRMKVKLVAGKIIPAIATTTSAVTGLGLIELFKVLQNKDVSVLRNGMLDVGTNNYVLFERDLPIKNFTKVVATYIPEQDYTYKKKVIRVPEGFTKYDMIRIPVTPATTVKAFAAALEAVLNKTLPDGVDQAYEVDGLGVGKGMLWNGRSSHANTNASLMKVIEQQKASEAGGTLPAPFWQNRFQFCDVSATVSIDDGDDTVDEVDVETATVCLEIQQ
Assay: Leishmania donovani Ubiquitin Activating Enzyme (LdE1)
Format: functional
Parameters: scale not given: direction of the effect not stated beside the values
Conditions: 30 µM
Entries with a potency or affinity are not part of this list.
MEASURED PROPERTY: Percent Effect (%)

                                   molecule   val
0  Cc1cncc(C(=O)N2Cc3ccccc3C3(CCN(C)CC3)C2)c1   1.3
1  O=C(NCCCNCC1CNc2ccnn2C1)c1ccccc1 (stereo unspecified)   2.7
2  CC(Cn1cccn1)NC(=O)N1CCN(Cc2cccs2)CC1 (stereo unspecified)  18.7
3  CSCC[C@H](NC(=O)Cn1ccc2c(Cl)cccc21)C(=O)O    12
4  COc1cc(N2CCCC(c3nccn3CCN(C)C)C2)nc(N)n1 (stereo unspecified)   2.7
5  CN1CC(=O)N(c2ccccc2)CC12CCN(CC1CC1)C2 (stereo unspecified)  -1.3

Where these numbers come from: ChEMBL document CHEMBL3988442
